Data provenance is patent US7118895B2.

Tested on: Purified diglycosidase
Assay: Influence of free glucose on diglycosidase activity
Type: biochemical, Penicillium multicolor IAM7153
Conditions: Glucose concentration 8 %; isolated aglycon amount at glucose 0% and 0.5 hour = 100%
Experimental: Purified diglycosidase was diluted with 20 mM acetate buffer of pH 4.0 to prepare a 0.75 AU/mL enzyme solution. With a glucose solution was mixed 10 μL of each 2 mM substrate solution described in Example 2, and 20 mM acetate buffer of pH 4.0 was added thereto to be a liquid volume of 210 μL. […] The reaction was carried out at 55° C. and the existence of isoflavone glycosides and aglycon isoflavones was detected by HLPC at 0, 0.5, 1, and 3 hours of the reaction.
readout-kind: Isolation of isoflavone aglycons by diglycosidase in presence of glucose (%)
Numeric answer only, unit % assumed.

Ask: May I ask what Isolation of isoflavone aglycons by diglycosidase in presence of glucose has been recorded for CC(=O)OC[C@H]1O[C@@H](Oc2cc(O)c3c(=O)c(-c4ccc(O)cc4)coc3c2)[C@H](O)[C@@H](O)[C@@H]1O ?
Result: 104.1

Ask: May I ask what Isolation of isoflavone aglycons by diglycosidase in presence of glucose has been recorded for COc1cc2c(=O)c(-c3ccc(O)cc3)coc2cc1O[C@@H]1O[C@H](COC(C)=O)[C@@H](O)[C@H](O)[C@H]1O ?
Result: 100.9

Ask: May I ask what Isolation of isoflavone aglycons by diglycosidase in presence of glucose has been recorded for CC(=O)OC[C@H]1O[C@@H](Oc2ccc3c(=O)c(-c4ccc(O)cc4)coc3c2)[C@H](O)[C@@H](O)[C@@H]1O ?
Result: 115.8

Ask: May I ask what Isolation of isoflavone aglycons by diglycosidase in presence of glucose has been recorded for O=C(O)CC(=O)OC[C@H]1O[C@@H](Oc2cc(O)c3c(=O)c(-c4ccc(O)cc4)coc3c2)[C@H](O)[C@@H](O)[C@@H]1O ?
Result: 163.5

Ask: May I ask what Isolation of isoflavone aglycons by diglycosidase in presence of glucose has been recorded for O=c1c(-c2ccc(O)cc2)coc2cc(O[C@@H]3O[C@H](CO)[C@@H](O)[C@H](O)[C@H]3O)ccc12 ?
Result: 129.1
